- condition.notes: 328.15 K; 15000 kPa; Liquid; Vibrating tube method
Would you mind telling me the reported mass density of each entry?
One number for each entry, in kg/m3.

Use these answered entries as a reference point.
CCOC(C)(C)C [2-ethoxy-2-methylpropane] :: 724.52
CCCCOCC [butyl ethyl ether] :: 733.52
CC(C)OC(C)C [diisopropyl ether] :: 708.19

Fill in mass density for each of the 3 molecules listed.
1. CC(C)CCOCCC(C)C [di-(3-methylbutyl) ether]
2. CCCOCCC [dipropyl ether]
3. CCCCOC [butyl methyl ether]

Response line:
1: 760.85; 2: 731.37; 3: 728.5

Prompt line: Tell me the measured mass density of CCCCCOCCCCC [dipentyl ether] , please.
Response line: 768.39
